Values compiled from ChEMBL document CHEMBL4842376.

Tested on: HeLa
Test: cells
Format: functional, cell-based
Settings: Homo sapiens, 72 h
Description: Antiproliferative activity against human HeLa cells assessed as inhibition of cell growth measured after 72 hrs by MTT assay
Each entry below carries its recorded IC50.
Report the figure in µM without appending any unit label.

Below, each entry is followed by its recorded IC50 result.
Nc1nc2cc(-c3nn(CCCCCCC(=O)NO)c4ncnc(N)c34)ccc2o1 6.41
Nc1nc2cc(-c3nn(CCCCCCCCC(=O)NO)c4ncnc(N)c34)ccc2o1 10.2

Ask | If you can, please state the reported IC50 value of `Nc1nc2cc(-c3nn(CCCCCC(=O)NO)c4ncnc(N)c34)ccc2o1` .
Reply | 15.4

----------
System: HeLa
Experiment: cells
Format: functional, cell-based
Details: Homo sapiens, 72 h
Strictly below 10 µM in IC50: Satisfied. Otherwise: Not satisfied.

Nc1ncnc2c1c(-c1cnc3[nH]ccc3c1)nn2CCCCC(=O)NO Not satisfied
Nc1nc2cc(-c3nn(CC(=O)NO)c4ncnc(N)c34)ccc2o1 Not satisfied
Nc1nc2cc(-c3nn(CCC(=O)NO)c4ncnc(N)c34)ccc2o1 Not satisfied
CC(C)n1nc(-c2ccc3oc(N)nc3c2)c2c(N)ncnc21 Satisfied
Nc1nc2cc(-c3nn(CCCCC(=O)NO)c4ncnc(N)c34)ccc2o1 Not satisfied
Nc1nc2cc(-c3nn(CCCCCCCC(=O)NO)c4ncnc(N)c34)ccc2o1 Not satisfied
Nc1nc2cc(-c3nn(CCCCCCCCCC(=O)NO)c4ncnc(N)c34)ccc2o1 Not satisfied
Nc1ncnc2c1c(-c1cnc3[nH]ccc3c1)nn2CCCCCCCC(=O)NO Not satisfied
Nc1ncnc2c1c(-c1cnc3[nH]ccc3c1)nn2CCCCCCC(=O)NO Not satisfied
Nc1ncnc2c1c(-c1cnc3[nH]ccc3c1)nn2CCCCCCCCC(=O)NO Satisfied

Could you now look at the following compound, please?
Ask | Does the reported IC50 of the following compound sit strictly below 10 µM? `Nc1ncnc2c1c(-c1cnc3[nH]ccc3c1)nn2CCCCCCCCCC(=O)NO`
Reply | Satisfied
